target: human mAChR M1 (Homo sapiens, UniProt P11229); assay: mAChR M1 cell-based functional assay (calcium mobilization), PAM mode: increase in the EC20 acetylcholine response
property_label: Emax (%)

(I) [2H]C1([2H])c2ncccc2C(=O)N1Cc1c(F)cc(-c2ccc(OC3CC3)c3nn(C)cc23)cc1Cl [Compound 169]
(II) [2H]C1([2H])c2ncccc2C(=O)N1Cc1c(F)cc(-c2cc(Cl)cc3c2cnn3C([2H])([2H])[2H])cc1F [Compound 246]
(III) [2H]C1([2H])c2ncccc2C(=O)N1Cc1c(F)cc(-c2cccc3nn(C([2H])([2H])[2H])cc23)cc1C(F)(F)F [Compound 226]
Challenge: Ranking criterion: Emax, increasing numeric value. Items: as listed above. Return value: ordered labels per request.
Response given: II, III, I
(II: 25%, III: 54%, I: 81%)

(A) [2H]C1([2H])c2ncccc2C(=O)N1Cc1c(F)cc(-c2ccc(F)c3nn(C)cc23)cc1OCC(C)C [Compound 214]
(B) [2H]C1([2H])c2ncccc2C(=O)N1Cc1c(F)cc(-c2cc(Cl)cc3nn(C([2H])([2H])[2H])cc23)cc1F [Compound 85]
Challenge: Would you mind telling me which has the lower recorded Emax between A and B ? In your reply, give the label of the chosen option.
Response given: B

(A) [2H]C1([2H])c2ncccc2C(=O)N1Cc1ccc(-c2cc(C)c3nn(C)cc3c2)cc1F [Compound 25]
(B) [2H]C1([2H])c2ncccc2C(=O)N1Cc1ccc(-c2cccc3ccnn23)cc1 [Compound 241]
Challenge: Compare A and B by numeric Emax and name the larger one. In your reply, give the label of the chosen option.
Response given: A

* * *

Target: human mAChR M1 (Homo sapiens, UniProt P11229)
Sequence (P11229 1-460): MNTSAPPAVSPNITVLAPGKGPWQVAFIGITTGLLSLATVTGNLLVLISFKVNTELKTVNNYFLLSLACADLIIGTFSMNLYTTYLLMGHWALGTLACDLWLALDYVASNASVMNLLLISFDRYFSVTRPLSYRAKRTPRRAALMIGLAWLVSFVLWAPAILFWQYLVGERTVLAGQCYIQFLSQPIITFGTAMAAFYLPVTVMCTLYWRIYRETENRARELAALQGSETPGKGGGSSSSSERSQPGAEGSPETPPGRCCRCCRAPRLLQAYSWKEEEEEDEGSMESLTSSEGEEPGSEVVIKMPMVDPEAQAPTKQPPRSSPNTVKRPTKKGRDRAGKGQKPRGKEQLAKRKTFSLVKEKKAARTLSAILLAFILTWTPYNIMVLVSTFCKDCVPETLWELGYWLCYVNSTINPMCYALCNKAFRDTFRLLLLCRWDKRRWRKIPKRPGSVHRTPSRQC
Test: mAChR M1 cell-based functional assay (calcium mobilization), PAM mode: increase in the EC20 acetylcholine response
Experimental: Chinese hamster ovary (CHO-K1) cells stably expressing rat (r)M1 were purchased from the American Type Culture Collection and cultured according to their indicated protocol. […] Calcium flux was measured using the Functional Drug Screening System (FDSS) 6000 (Hamamatsu Corporation, Tokyo, Japan) as an increase in the fluorescent static ratio. […] Agonist activity was analyzed as a concentration-dependent increase in calcium mobilization upon compound addition. […]
property_label: Emax (%)

Examples from the recorded data:
compound | Emax, %
[2H]C1([2H])c2ncccc2C(=O)N1Cc1c(F)cc(-c2ccc(OC3CN(C4CCCCC4)C3)c3nn(C)cc23)cc1F [Compound 189] | 72
[2H]C1([2H])c2ncccc2C(=O)N1Cc1c(F)cc(-c2ccc(OCC3(C#N)CC3)c3nn(C)cc23)cc1F [Compound 174] | 86
[2H]C1([2H])c2ncccc2C(=O)N1Cc1c(F)cc(-c2cc(F)c3nn(C)cc3c2)cc1F [Compound 7] | 53
[2H]C1([2H])c2ncccc2C(=O)N1Cc1c(F)cc(-c2cccc3nn(C([2H])([2H])[2H])cc23)cc1N(C)C [Compound 230] | 38
[2H]C1([2H])c2ncccc2C(=O)N1Cc1c(Cl)cc(-c2cccc3nn(C)cc23)cc1C1CC1 [Compound 219] | 89
[2H]C1([2H])c2ncccc2C(=O)N1Cc1c(F)cc(-c2cn(C)c(=O)c3nn(C)cc23)cc1F [Compound 79] | 79
[2H]C1([2H])c2ncccc2C(=O)N1Cc1c(C)cc(-c2ccc(OCCOC)c3nn(C)cc23)cc1F [Compound 177] | 82
[2H]C1([2H])c2ncccc2C(=O)N1Cc1ccc(-c2cc3cn(C)nc3cc2F)cc1F [Compound 24] | 69
[2H]C1([2H])c2ncccc2C(=O)N1Cc1c(F)cc(-c2ccnc3nn(C([2H])([2H])[2H])cc23)cc1F [Compound 188] | 71
[2H]C1([2H])c2ncccc2C(=O)N1Cc1c(F)cc(-c2ccc(F)c3nn(C)cc23)cc1F [Compound 36] | 84

(P) [2H]C1([2H])c2ncccc2C(=O)N1Cc1c(F)cc(-c2ccc(S(C)(=N)=O)c3nn(C)cc23)cc1F (stereo not drawn) [Compound 182]
(Q) [2H]C1([2H])c2ncccc2C(=O)N1Cc1ccc(-c2cc3cn(C)nc3cc2F)cc1 [Compound 15]
Challenge: Would you mind telling me which has the lower recorded Emax between P and Q ? In your reply, give the label of the chosen option.
Response given: Q
